Recorded values, source patent US7427625B2.

Target: Aurora-A (Mus musculus)
Sequence (P97477 1-395): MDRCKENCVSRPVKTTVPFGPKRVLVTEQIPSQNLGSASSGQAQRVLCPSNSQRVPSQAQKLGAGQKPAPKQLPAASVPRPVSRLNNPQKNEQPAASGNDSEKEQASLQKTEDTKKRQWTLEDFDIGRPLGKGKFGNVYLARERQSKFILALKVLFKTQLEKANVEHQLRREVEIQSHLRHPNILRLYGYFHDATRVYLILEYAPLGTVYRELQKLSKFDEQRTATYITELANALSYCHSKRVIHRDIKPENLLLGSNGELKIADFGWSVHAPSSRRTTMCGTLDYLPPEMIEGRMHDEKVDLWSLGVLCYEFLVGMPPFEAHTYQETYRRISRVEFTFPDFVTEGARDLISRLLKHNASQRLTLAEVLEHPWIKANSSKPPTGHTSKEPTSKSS
measured_quantity: IC50 (µM)
Write the number in µM without appending the unit.

See these solved cases before continuing.
1. N#Cc1cnc2sc(C(=O)Nc3ccc(CCN4CCOCC4)cc3)c3c2c1N(c1c(Cl)ccc2c1OCO2)C(=O)N3 = 5.93
2. CN1CCC(NC(=O)c2sc3ncc(C#N)c4c3c2NC(=O)N4c2c(Cl)ccc3c2OCO3)CC1 = 13.3
3. N#Cc1c(N2CCOCC2)nc2sc(C(=O)Nc3ccc(CN4CCOCC4)cc3)c3c2c1N(c1c(Cl)ccc2c1OCO2)C(=O)N3 = 6.47
4. N#Cc1cnc2sc(C(=O)Nc3ccc(CN4CCOCC4)cc3)c3c2c1N(c1c(Cl)ccc2c1OCO2)C(=O)N3 = 10.6

Task: Return reported IC50; argument: N#Cc1cnc2sc(C(=O)Nc3ccc(CN4CCC(F)(F)CC4)cc3)c3c2c1N(c1c(Cl)ccc2c1OCO2)C(=O)N3
Output: 15.3

* * *

Target: Aurora-A (Mus musculus, UniProt P97477)
Construct: followed by the full length protein encoding the murine Aurora-A; polyhistidine (N); made in house; host or cells: sf9 insect cells
Experiment: Aurora-A Screening Assay
Assay type: biochemical, murine
Conditions: test concentration of 1 μM; read-out: Aurora-A percent inhibition
Experimental: A kinase reaction mixture was prepared containing 50 mM Tris-HCl at pH 8, 10 mM, MgCl20.1 mM […], 1 mM DTT, 10 μM ATP, 0.025 μM biotinylated histone-H1 peptide substrate and 0.2 μCuries per well ^33P-γ-ATP (2000-3000 Ci/mmol). 70 μL of the kinase reaction mixture was dispensed into the well of a Streptavidin FlashPlate. Test compound stock in 100% DMSO (1 μL) was added to the wells resulting in a final concentration of 1% DMSO in the reaction with a 100 μL final reaction volume. […]
# key: entry, value: inhibition at 1 µM
The reply should be a number in %, with the unit left off.

Task: Which measured inhibition at 1 µM value corresponds to N#Cc1cnc2sc(C(=O)Nc3ccc(CN4CCC(CO)CC4)cc3)c3c2c1N(c1c(Cl)ccc2c1OCO2)C(=O)N3 [Cpd 22] ?
Output: 15

Task: Fill in the blank: the reported inhibition at 1 µM of CN1CCCCC1COc1ccc(NC(=O)c2sc3ncc(C#N)c4c3c2NC(=O)N4c2c(Cl)ccc3c2OCO3)cc1 (stereo not drawn) [Cpd 32] is ____.
Output: 13

Task: // query inhibition at 1 µM value for entry N#Cc1cnc2sc(C(=O)Nc3ccc(NCCCN4CCOCC4)nc3)c3c2c1N(c1c(Cl)ccc2c1OCO2)C(=O)N3 [Cpd 30]
Output: 22
